Tested on: E21 (patient-derived glioblastoma stem cells of mesenchymal subtype)
Experiment Summary: surviving fraction (nuclei count normalised to DMSO); higher = more cells surviving (less toxic);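 further: nuclei counted by high-content imaging of Hoechst-stained cells in laminin-coated 384-well plates, relative to 0.1% DMSO vehicle wells, with staurosporine as cell-death control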
Condition: 3000 nM; exposure time: 72 h
Answer each item with its documented surviving fraction.

Provide only the value of recorded surviving fraction for C/C=C(\C)C(=O)N[C@@H](c1ccccc1)[C@@H](O)C(=O)O[C@H]1C[C@@]2(O)[C@@H](OC(=O)c3ccccc3)[C@@H]3[C@]4(OC(C)=O)CO[C@@H]4C[C@H](O)[C@@]3(C)C(=O)[C@H](OC(C)=O)C(=C1C)C2(C)C
0.198

Provide only the value of recorded surviving fraction for C=CC(=O)Nc1cccc(Oc2nc(Nc3ccc(N4CCN(C)CC4)cc3)nc3ccsc23)c1
0.411

Provide only the value of recorded surviving fraction for CN[C@@H](C)C(=O)N[C@H](C(=O)N1CCC[C@H]1C(=O)N[C@H]1c2ccccc2C[C@H]1OCC#CC#CCO[C@@H]1Cc2ccccc2[C@@H]1NC(=O)[C@@H]1CCCN1C(=O)[C@@H](NC(=O)[C@H](C)NC)C1CCCCC1)C1CCCCC1
0.505

====

Tested on: E13 (patient-derived glioblastoma stem cells of classical subtype)
Experiment Summary: surviving fraction (nuclei count normalised to DMSO); higher = more cells surviving (less toxic)
Condition: 333.3 nM; exposure time: 72 h
Structures can show the parent of a compound that is named as a salt.
Measured Quantity: surviving fraction
Keep the answer to the number alone.

Provide only the value of recorded surviving fraction for CN1CCC(NC(=O)c2cc(-c3c(O)cc(O)cc3Oc3ccc([N+](=O)[O-])cc3)on2)CC1 [NMS-E973]
0.219

Provide only the value of recorded surviving fraction for CCn1cc(-c2ccnc3[nH]c(-c4cccc(CN(C)C)c4)cc23)c(-c2ccc(NC(=O)N(C)C)cc2)n1
0.49

Provide only the value of recorded surviving fraction for COC(=O)C[C@](O)(CCCC(C)(C)O)C(=O)O[C@@H]1C(OC)=C[C@]23CCCN2CCc2cc4c(cc2[C@H]13)OCO4 [Homoharringtonine]
0.316

Provide only the value of recorded surviving fraction for Nc1ccn([C@@H]2O[C@H](CO)[C@@H](O)C2(F)F)c(=O)n1 [Gemcitabine HCl]
0.32

Provide only the value of recorded surviving fraction for C[C@@H](Oc1cc(-c2cnn(C3CCNCC3)c2)cnc1N)c1c(Cl)ccc(F)c1Cl [Crizotinib]
0.881

Provide only the value of recorded surviving fraction for CC(=O)CC(c1ccc([N+](=O)[O-])cc1)c1c(O)c2ccccc2oc1=O (configuration not stated) [Acenocoumarol]
0.873

Provide only the value of recorded surviving fraction for CCn1c(-c2nonc2N)nc2cnc(Oc3cccc(NC(=O)c4ccc(OCCN5CCOCC5)cc4)c3)cc21
1.03

Provide only the value of recorded surviving fraction for CCC(C)n1ncn(-c2ccc(N3CCN(c4ccc(OCC5COC(Cn6cncn6)(c6ccc(Cl)cc6Cl)O5)cc4)CC3)cc2)c1=O (configuration not stated) [Itraconazole]
0.966

Provide only the value of recorded surviving fraction for CN1C(=O)CC(c2ccccc2)C1=O (configuration not stated) [Phensuximide]
1

Provide only the value of recorded surviving fraction for Cc1ccc2c(c1)C1(CCN(CCc3nc(-c4ccccc4)oc3C)CC1)OC(=O)N2
1.12

Provide only the value of recorded surviving fraction for Cc1cc(C)c(CN2CCc3c(Cl)cc(-c4c(C)noc4C)c(Cl)c3C2=O)c(=O)[nH]1
0.891

Provide only the value of recorded surviving fraction for C[C@@H](O[C@H]1OCCN(Cc2n[nH]c(=O)[nH]2)[C@H]1c1ccc(F)cc1)c1cc(C(F)(F)F)cc(C(F)(F)F)c1 [Aprepitant]
0.901

Provide only the value of recorded surviving fraction for O=C(CCBr)N1CCN(C(=O)CCBr)CC1 [Pipobroman]
0.977

Provide only the value of recorded surviving fraction for C/C(=C\c1csc(C)n1)[C@@H]1C[C@@H]2O[C@]2(C)CCC[C@H](C)[C@H](O)[C@@H](C)C(=O)C(C)(C)[C@@H](O)CC(=O)N1 [Ixabepilone]
0.21

Provide only the value of recorded surviving fraction for CSc1ccc2c(c1)N(CCC1CCCCN1C)c1ccccc1S2 (configuration not stated) [Thioridazine hydrochloride]
0.939

Provide only the value of recorded surviving fraction for NC(=O)c1ccccc1 [Benzamide]
1.03

Provide only the value of recorded surviving fraction for CCOC(=O)OC(C)OC(=O)[C@@H]1N2C(=O)[C@@H](NC(=O)[C@H](N)c3ccccc3)[C@H]2SC1(C)C (some centres not stated) [Bacampicillin hydrochloride]
1

Provide only the value of recorded surviving fraction for Clc1ccc(CSC(Cn2ccnc2)c2ccc(Cl)cc2Cl)cc1 (configuration not stated) [Sulconazole nitrate]
0.841

Provide only the value of recorded surviving fraction for COc1cccc2c(NCc3ccccc3)nc(-n3c(N)nc4ccccc43)nc12 [ML240]
0.985

Provide only the value of recorded surviving fraction for Cc1ncc(CO)c(CO)c1O [Pyridoxine hydrochloride]
1.02

Provide only the value of recorded surviving fraction for NCc1ccccc1CC(=O)N[C@@H]1C(=O)N2C(C(=O)O)=C(CSc3nnnn3CC(=O)O)CS[C@H]12 [Ceforanide]
0.967

Provide only the value of recorded surviving fraction for Cc1ccc(S(=O)(=O)/C=C/C#N)cc1 [Bay 11-7082]
0.976

Provide only the value of recorded surviving fraction for COc1ccc([C@@H]2CC(=O)c3c(O)cc(O[C@@H]4O[C@H](CO[C@@H]5O[C@@H](C)[C@H](O)[C@@H](O)[C@H]5O)[C@@H](O)[C@H](O)[C@H]4O)cc3O2)cc1O [Hesperidin]
0.941

Provide only the value of recorded surviving fraction for N=C(N)NCc1cccc(I)c1 [Iobenguane sulfate]
0.989

Provide only the value of recorded surviving fraction for C[C@H](Cc1cc2c(c(C(N)=O)c1)N(CCCO)CC2)NCCOc1ccccc1OCC(F)(F)F [Silodosin]
0.859

Provide only the value of recorded surviving fraction for COc1cccc2c1C(=O)c1c(O)c3c(c(O)c1C2=O)C[C@@](O)(C(C)=O)C[C@@H]3O[C@H]1C[C@H](N)[C@H](O)[C@H](C)O1 [Daunorubicin hydrochloride]
0.216

Provide only the value of recorded surviving fraction for Cc1nc2ccccn2c(=O)c1CCN1CCC(C(=O)c2ccc(F)cc2)CC1 [Pirenperone]
1.06

Provide only the value of recorded surviving fraction for CCCCCCC[N+](CC)(CC)CCCCc1ccc(Cl)cc1 [Clofilium tosylate]
0.896

Provide only the value of recorded surviving fraction for CCN(CC)Cc1ccc(C(=O)N(CCc2ccccc2OC)[C@@H]2CCNC2)cc1
0.929

Provide only the value of recorded surviving fraction for O=C1CCc2cc(OCCCCc3nnnn3C3CCCCC3)ccc2N1 [Cilostazol]
0.933

Provide only the value of recorded surviving fraction for CCCCC1C(=O)N(c2ccccc2)N(c2ccc(O)cc2)C1=O (configuration not stated) [Oxyphenbutazone]
1.11

Provide only the value of recorded surviving fraction for O=C(/C=C\n1cnc(-c2cc(C(F)(F)F)cc(C(F)(F)F)c2)n1)NNc1cnccn1 [Selinexor]
0.384

====

System: E34 (patient-derived glioblastoma stem cells of proneural subtype)
Experiment Summary: surviving fraction (nuclei count normalised to DMSO); higher = more cells surviving (less toxic)
Condition: 37 nM; exposure time: 72 h
Where a name gives a salt, the structure may show the parent alone.
Give 1.0 when the value for surviving fraction is at least 0.7. Give 0.0 when it is less.

Record Nc1ccn([C@@H]2O[C@H](CO)[C@@H](O)C2(F)F)c(=O)n1 [Gemcitabine HCl] ; criterion: surviving fraction no lower than 0.7. Met?
0.0

Record CC(C)N1CCN(c2ccc(OCC3COC(Cn4cncn4)(c4ccc(Cl)cc4Cl)O3)cc2)CC1 (stereo unspecified) [Terconazole] ; criterion: surviving fraction no lower than 0.7. Met?
1.0

Record CCOC(=O)OC(C)OC1=C(C(=O)Nc2ccccn2)N(C)S(=O)(=O)c2ccccc21 (stereo unspecified) [Ampiroxicam] ; criterion: surviving fraction no lower than 0.7. Met?
1.0

Record CC(C)NCC(O)COc1cccc2ccccc12 (stereo unspecified) [Propranolol hydrochloride] ; criterion: surviving fraction no lower than 0.7. Met?
1.0

Record COc1cc(N)c(Cl)cc1C(=O)NC1CCN(CCCOc2ccc(F)cc2)CC1OC (stereo unspecified) [Cisapride] ; criterion: surviving fraction no lower than 0.7. Met?
1.0

Record CCCCCCNC(=O)n1cc(F)c(=O)[nH]c1=O [Carmofur] ; criterion: surviving fraction no lower than 0.7. Met?
1.0

Record CC(C)C[C@H](NC(=O)CNC(=O)c1cc(Cl)ccc1Cl)B(O)O [Ixazomib] ; criterion: surviving fraction no lower than 0.7. Met?
0.0

Record Cc1cc(C)c(CN2CCc3c(Cl)cc(-c4c(C)noc4C)c(Cl)c3C2=O)c(=O)[nH]1 ; criterion: surviving fraction no lower than 0.7. Met?
1.0

Record CO[C@H]1C(=O)[C@]2(C)[C@@H](OC)C[C@H]3OC[C@@]3(OC(C)=O)[C@H]2[C@H](OC(=O)c2ccccc2)[C@]2(O)C[C@H](OC(=O)[C@H](O)[C@@H](NC(=O)OC(C)(C)C)c3ccccc3)C(C)=C1C2(C)C [Cabazitaxel] ; criterion: surviving fraction no lower than 0.7. Met?
0.0

Record Nc1ccn([C@@H]2O[C@H](CO)[C@@H](O)[C@@H]2O)c(=O)n1 [Cytarabine] ; criterion: surviving fraction no lower than 0.7. Met?
1.0

Record CCC(C)(C)c1ccc(CC(C)CN2C[C@@H](C)O[C@@H](C)C2)cc1 (stereo partly specified) [Amorolfine hydrochloride] ; criterion: surviving fraction no lower than 0.7. Met?
1.0

Record CC[C@@]1(O)C(=O)OCc2c1cc1n(c2=O)Cc2cc3c(CN(C)C)c(O)ccc3nc2-1 [Topotecan] ; criterion: surviving fraction no lower than 0.7. Met?
0.0

Record O=C1c2c(O)ccc(O)c2C(=O)c2c(NCCNCCO)ccc(NCCNCCO)c21 [Mitoxantrone] ; criterion: surviving fraction no lower than 0.7. Met?
0.0

Record C[C@H](Cc1cc2c(c(C(N)=O)c1)N(CCCO)CC2)NCCOc1ccccc1OCC(F)(F)F [Silodosin] ; criterion: surviving fraction no lower than 0.7. Met?
1.0

Record CC1(C(=O)O)C2CCC(O2)C1(C)C(=O)O (stereo unspecified) [Cantharidic Acid] ; criterion: surviving fraction no lower than 0.7. Met?
1.0

Record Clc1ccc(COC(Cn2ccnc2)c2ccc(Cl)cc2Cl)cc1 (stereo unspecified) [Econazole nitrate] ; criterion: surviving fraction no lower than 0.7. Met?
1.0
